Entry source: patent US20250353873A1

Tested on: human APOE RNA
Experiment: Dose-dependent inhibition of human APOE RNA in HepG2 cells, electroporation, 50,000 cells per well, RT-PCR normalized to GAPDH (Example 4, Tables 8-10)
Type: cell-based
Details: HepG2 cells, electroporation, 24-hour treatment, 13 nM, Table 8
Strand notation (5' to 3'): a small letter for the sugar, then the base; units joined by * are phosphorothioate-linked, units joined directly phosphodiester-linked; [ ] holds rarer units or linkages, { } end groups; capitals alone tell only the bases. [ms] = mesyl phosphoramidate linkage; e = 2'-O-(2-methoxyethyl) (MOE); k = constrained ethyl (cEt); [5mC] = 5-methylcytosine; d = 2'-deoxy (DNA)
Measured APOE RNA (% UTC) 13 nM accompanies every entry in the list below.
Please state the figure in % UTC; there is no need to write the unit.

See these solved cases before continuing.
{"columns": ["SUBSTANCE", "APOE RNA (% UTC) 13 nM"],
 "data": [
  ["1778115: modified oligonucleotide complementary to human APOE RNA (eA*e[5mC]eTeTkGkG*dT*dG[ms]dA[ms]dA*dT*d[5mC]*dT*dT*dT*dA[ms]eTeT*eA*eA; antisense) [compound 1778115]", 75],
  ["1778114: modified oligonucleotide complementary to human APOE RNA (eA*e[5mC]eTeTkG*kG*dT*dG[ms]dA[ms]dA*dT*d[5mC]*dT*dT*dT*dA[ms]eTeT*eA*eA; antisense) [compound 1778114]", 82],
  ["1778127: modified oligonucleotide complementary to human APOE RNA (eA*e[5mC]eTeTkGkG*dT*dG[ms]dA[ms]dA*dT*d[5mC]*dT*dT*dT*dA[ms]kTeT[ms]eA[ms]eA; antisense) [compound 1778127]", 88],
  ["1785601: modified oligonucleotide complementary to human APOE RNA (k[5mC]*kT*kT*dG[ms]dG[ms]dT[ms]dG*dA[ms]dA[ms]dT*d[5mC]*dT*dT*dT*dA[ms]dT*kT*kA*dA[ms]kA; antisense) [compound 1785601]", 115],
  ["1778129: modified oligonucleotide complementary to human APOE RNA (eA*e[5mC]eTeTeG*kG*dT*dG[ms]dA[ms]dA*dT*d[5mC]*dT*dT*dT*dA[ms]kT*kT*eA*eA; antisense) [compound 1778129]", 105]
]}

The substance listed as 1785598: modified oligonucleotide complementary to human APOE RNA (k[5mC]*kT*kT*dG[ms]dG[ms]dT[ms]dG[ms]dA[ms]dA[ms]dT*d[5mC]*dT*dT*dT*dA*dT[ms]kT*kA*dA[ms]kA; antisense) [compound 1785598] has a reported APOE RNA (% UTC) 13 nM of 109

Per the records, this substance ( 1778154: modified oligonucleotide complementary to human APOE RNA (e[5mC]*eT*eTeGeGeT*dG[ms]dA[ms]dA*dT*d[5mC]*dT*dT*dT*dA*dT*kTkAeA*eA; antisense) [compound 1778154] ) has APOE RNA (% UTC) 13 nM equal to 97

Note to self: APOE RNA (% UTC) 13 nM recorded for 1785599: modified oligonucleotide complementary to human APOE RNA (k[5mC]*kT*kT*dG[ms]dG[ms]dT[ms]dG[ms]dA[ms]dA[ms]dT[ms]d[5mC]*dT*dT*dT*dA*dT*kT*kA*dA[ms]kA; antisense) [compound 1785599] was 116

APOE RNA (% UTC) 13 nM reading for 1778130: modified oligonucleotide complementary to human APOE RNA (eA*e[5mC]eTeTeG*kG*dT*dG[ms]dA[ms]dA*dT*d[5mC]*dT*dT*dT*dA[ms]kTkT*eA*eA; antisense) [compound 1778130] : 106

1785604: modified oligonucleotide complementary to human APOE RNA (k[5mC]*dT[ms]dT[ms]kG*dG[ms]kT*dG[ms]dA[ms]dA*dT*d[5mC]*dT*dT*dT*dA*dT*kT*kA*dA[ms]kA; antisense) [compound 1785604] yielded APOE RNA (% UTC) 13 nM of 108

The value of APOE RNA (% UTC) 13 nM measured for the substance 1785617: modified oligonucleotide complementary to human APOE RNA (k[5mC]*dT[ms]dT[ms]kG*dG[ms]kT*dG[ms]dA[ms]dA[ms]dT[ms]d[5mC]*dT*dT*dT*dA*dT*kT*kA*dA[ms]kA; antisense) [compound 1785617] turned out to be 104

Data point: Aes^mCeoTeoTesGesGksTdsGdzAdzAdzTds^mCdsTdsTdsTdsAdzTksTksAesAe (eA*e[5mC]eTeT*eG*kG*dT*dG[ms]dA[ms]dA[ms]dT*d[5mC]*dT*dT*dT*dA[ms]kT*kT*eA*eA) [Compound No. 1757576] ; APOE RNA (% UTC) 13 nM = 81

substance 1778125: modified oligonucleotide complementary to human APOE RNA (eA*e[5mC]eTeTeGeG*dT*dG[ms]dA[ms]dA*dT*d[5mC]*dT*dT*dT*dA[ms]kTkT*eA*eA; antisense) [compound 1778125] , APOE RNA (% UTC) 13 nM observed: 100

# APOE RNA (% UTC) 13 nM of ^mCksTksTksGdzGdzTdzGdzAdzAdzTds^mCdsTdsTdsTdsAdsTdsTksAksAdzAk (antisense k[5mC]*kT*kT*dG[ms]dG[ms]dT[ms]dG[ms]dA[ms]dA[ms]dT*d[5mC]*dT*dT*dT*dA*dT*kT*kA*dA[ms]kA) [Compound No. 1785602] = 109

Notebook: 1778128: modified oligonucleotide complementary to human APOE RNA (eA*e[5mC]eTeTkGkG*dT*dG[ms]dA[ms]dA*dT*d[5mC]*dT*dT*dT*dA[ms]kTeT*eA*eA; antisense) [compound 1778128] , APOE RNA (% UTC) 13 nM read as 83

APOE RNA (% UTC) 13 nM reading for 1778111: modified oligonucleotide complementary to human APOE RNA (eA*e[5mC]eTeTeG*kG*dT*dG[ms]dA[ms]dA*dT*d[5mC]*dT*dT*dT*dA[ms]eTeT*eA*eA; antisense) [compound 1778111] : 96

Measured APOE RNA (% UTC) 13 nM of 1778123: modified oligonucleotide complementary to human APOE RNA (eA*e[5mC]eTeTeG*eG*dT*dG[ms]dA[ms]dA*dT*d[5mC]*dT*dT*dT*dA[ms]kTkT*eA*eA; antisense) [compound 1778123] : 91
